All figures here come from patent US12528808B2.

measurement_notes: in vitro
assay_metric: CC50

# input Tell us which CC50 value is on record for `COc1ccc2c3c([nH]c2c1)[C@H](CC(C)C)N1C(=O)[C@H](CCCOC(C)(C)C)NC(=O)[C@@H]1C3`
# output > 100 µM

---

Please respond with reported CC50 for every item in the list.
measurement_notes: MTT cytotoxicity assay
measurement_context: read-out: CC50, the 50% cytotoxic concentration; MTT assay

# input Tell us which CC50 value is on record for `COc1ccc2c3c([nH]c2c1)[C@H](CC(C)C)N1C(=O)[C@H](CC(=O)N2CCCCC2)NC(=O)[C@@H]1C3`
# output 26.5 µM

# input Tell us which CC50 value is on record for `COc1ccc2c3c([nH]c2c1)[C@H](CC(C)C)N1C(=O)[C@H](CC(=O)NC(C)C)NC(=O)[C@@H]1C3`
# output > 100 µM

# input Tell us which CC50 value is on record for `COc1ccc2c3c([nH]c2c1)[C@H](CC(C)C)N1C(=O)[C@H](CC(=O)NC2CCCCC2)NC(=O)[C@@H]1C3`
# output 46.6 µM

# input Tell us which CC50 value is on record for `COc1ccc2c3c([nH]c2c1)[C@H](CC(C)C)N1C(=O)[C@H](CC(=O)NC(C)(C)C)NC(=O)[C@@H]1C3`
# output 58.9 µM

# input Tell us which CC50 value is on record for `COc1ccc2c3c([nH]c2c1)[C@H](CC(C)C)N1C(=O)[C@H](CC(=O)NCc2ccccc2)NC(=O)[C@@H]1C3`
# output 31.1 µM

---

measurement_notes: Metabolic stability assay, incubation with human liver microsomes (HLM)
Assay type: in vitro ADME
measurement_context: remaining parent compound, 60 min
Mark each entry yes (1) if its HLM stability (% vs 0 min) 60 min sits below 30%, and no (0) for all others.

# input Report whether reported HLM stability (% vs 0 min) 60 min is lower than 30% (strictly) for `COc1ccc2c3c([nH]c2c1)[C@H](CC(C)C)N1C(=O)[C@H](CCCCNC(=O)C(C)(C)C)N(C(=O)C(C)(C)C)C(=O)[C@@H]1C3`
# output yes (1)

# input Report whether reported HLM stability (% vs 0 min) 60 min is lower than 30% (strictly) for `COc1ccc2c3c([nH]c2c1)[C@H](CC(C)C)N1C(=O)[C@H](CC(=O)NC(C)C)NC(=O)[C@@H]1C3`
# output no (0)

# input Report whether reported HLM stability (% vs 0 min) 60 min is lower than 30% (strictly) for `COc1ccc2c3c([nH]c2c1)[C@H](CC(C)C)N1C(=O)[C@H](CC(=O)NCc2ccccc2)NC(=O)[C@@H]1C3`
# output yes (1)

# input Report whether reported HLM stability (% vs 0 min) 60 min is lower than 30% (strictly) for `COc1ccc2c3c([nH]c2c1)[C@H](CC(C)C)N1C(=O)[C@H](CC(=O)NC(C)(C)C)NC(=O)[C@@H]1C3`
# output no (0)

# input Report whether reported HLM stability (% vs 0 min) 60 min is lower than 30% (strictly) for `COc1ccc2c3c([nH]c2c1)[C@H](CC(C)C)N1C(=O)[C@H](CCCOC(C)(C)C)NC(=O)[C@@H]1C3`
# output yes (1)

# input Report whether reported HLM stability (% vs 0 min) 60 min is lower than 30% (strictly) for `COc1ccc2c3c([nH]c2c1)[C@H](CC(C)C)N1C(=O)[C@H](CC(=O)NC2CCCCC2)NC(=O)[C@@H]1C3`
# output yes (1)

---

Please respond with reported HLM stability (% vs 0 min) 30 min for every item in the list.
measurement_notes: Metabolic stability assay, incubation with human liver microsomes (HLM)
Format: in vitro ADME
measurement_context: remaining parent compound, 30 min

# input Tell us which HLM stability (% vs 0 min) 30 min value is on record for `COc1ccc2c3c([nH]c2c1)[C@H](CC(C)C)N1C(=O)[C@H](CC(=O)NC2CCCCC2)NC(=O)[C@@H]1C3`
# output 45%

# input Tell us which HLM stability (% vs 0 min) 30 min value is on record for `COc1ccc2c3c([nH]c2c1)[C@H](CC(C)C)N1C(=O)[C@H](CCCOC(C)(C)C)NC(=O)[C@@H]1C3`
# output 16%

# input Tell us which HLM stability (% vs 0 min) 30 min value is on record for `COc1ccc2c3c([nH]c2c1)[C@H](CC(C)C)N1C(=O)[C@H](CC(=O)NC(C)C)NC(=O)[C@@H]1C3`
# output 65%

# input Tell us which HLM stability (% vs 0 min) 30 min value is on record for `COc1ccc2c3c([nH]c2c1)[C@H](CC(C)C)N1C(=O)[C@H](CC(=O)NCc2ccccc2)NC(=O)[C@@H]1C3`
# output 37%

# input Tell us which HLM stability (% vs 0 min) 30 min value is on record for `COc1ccc2c3c([nH]c2c1)[C@H](CC(C)C)N1C(=O)[C@H](CCCCNC(=O)C(C)(C)C)N(C(=O)C(C)(C)C)C(=O)[C@@H]1C3`
# output 7%

# input Tell us which HLM stability (% vs 0 min) 30 min value is on record for `COc1ccc2c3c([nH]c2c1)[C@H](CC(C)C)N1C(=O)[C@H](CC(=O)NC(C)(C)C)NC(=O)[C@@H]1C3`
# output 74%
